These entries and their values trace back to ChEMBL document CHEMBL5154661.

- MEASUREMENT_NOTES: Kinetic solubility of compound at pH 7.4 by turbidimetry method
- Assay type: physicochemical
- CONDITION_PARAMETERS: buffer, read-out: Kinetic_solubility
For each entry below, report its solubility kinetic value.
Give your result in µM as a bare value.

Q: I am curious: what solubility kinetic value has been reported for COc1ccc(F)cc1N1C(=O)CSC1c1cccc(C(=O)NCCCCc2ccccc2)c1 (stereo not drawn) ?
Ans: 10

Q: Consider next the molecule O=C(NCCCCn1cccn1)c1cccc(C2SCC(=O)N2c2ccccn2)c1 (stereo not drawn) in the same way.
Ans: 50

Q: Would you mind doing C#Cc1cc(C(=O)NCCCCc2ccccc2)cc(C2SCC(=O)N2c2ccccc2OC)c1 (stereo not drawn) as well?
Ans: 10

###

- MEASUREMENT_NOTES: Kinetic solubility of compound at pH 7.4 by turbidimetry method
- Type: physicochemical
- CONDITION_PARAMETERS: buffer, read-out: Kinetic_solubility
For each record, write down the corresponding solubility kinetic.
The response must be a number in µM with no trailing unit.

Q: Give its solubility kinetic value. Item: O=C(NCCCCc1ccccc1)c1cccc(C2SCC(=O)N2c2cccc(C3CC3)c2)c1 (stereo not given)
Ans: 10

Q: Next molecule up: O=C(NCCCCc1ccccc1)c1cccc(C2SCC(=O)N2c2ccccn2)c1 (stereo not given)
Ans: 20

Q: Further, for O=C(NCCCCc1ccccc1)c1cccc(C2SCC(=O)N2c2cccc(-c3c[nH]nn3)c2)c1 (stereo not given) ?
Ans: 20

Q: Try the molecule O=C(NCCCCc1ccccc1)c1cccc(C2SCC(=O)N2c2cccc(F)c2)c1 (stereo not given)
Ans: 10

Q: Check Cc1cccc(N2C(=O)CSC2c2cccc(C(=O)NCCCCc3ccccc3)c2)c1 (stereo not given) too.
Ans: 10

###

Please provide measured solubility kinetic for the entries that follow.
- MEASUREMENT_NOTES: Kinetic solubility of compound at pH 6.8 by turbidimetry method
- Assay type: physicochemical
- CONDITION_PARAMETERS: buffer, read-out: Kinetic_solubility
Record the value in µM, omitting the unit from your answer.

Q: Reported solubility kinetic for O=C(NCCCCn1cccn1)c1cccc(C2SCC(=O)N2c2ccccn2)c1 (centres undefined) : what is it?
Ans: 50

Q: Try the compound O=C(NCCCCc1ccccc1)c1cccc(C2SCC(=O)N2c2ccccc2F)c1 (centres undefined)
Ans: 20

Q: // same read-out, input: O=C(NCCCCn1cccn1)c1cccc(C2SCC(=O)N2c2cc(F)ccn2)c1 (centres undefined)
Ans: 50

Q: # iterate: CC1SC(c2cccc(C(=O)NCCCCc3ccccc3)c2)N(c2ccc(C3CC3)cc2)C1=O (centres undefined)
Ans: 10

Q: Queued: Cc1ccnc(N2C(=O)CSC2c2cccc(C(=O)NCCCCn3cccn3)c2)c1 (racemic)
Ans: 50

Q: Please answer likewise for COc1ccccc1N1C(=O)C(C)SC1c1cccc(C(=O)NCCCCc2ccccc2)c1 (centres undefined)
Ans: 20

Q: Another compound to look at: CC(F)(F)c1cccc(N2C(=O)CSC2c2cccc(C(=O)NCCCCc3ccccc3)c2)c1 (centres undefined)
Ans: 10

Q: And what about the compound O=C(NCCCCc1ccccc1)c1cccc(C2SCC(=O)N2c2cccc(F)c2)c1 (centres undefined) ?
Ans: 10

Q: What do we get for COc1ccc(F)cc1N1C(=O)CSC1c1cccc(C(=O)NCCCCn2cccn2)c1 (centres undefined) ?
Ans: 50
